# Test system: transgenic soybean plants
# experiment-description: R0 soybean 2,4-D spray test of 2,4-D optimized variants
# Type: in vivo
# details: 2× application rate; soy
measured-quantity: tolerance to 2,4-D treatment

[[record]]
molecule = "MON-HT17: engineered oxygenase protein, amino acid sequence SEQ ID NO:51 (protein) MHAALTPLTNKYRFIDVQPLTGVLGAEITGVDLREPLDDSTWNEILDAFHTYQVIYFPGQAITNEQHIAFSRRFGPVDPVPILKSIEGYPEVQMIRREANESSRYIGDDWHADSTFLDAPPAAVVMRAIEVPEYGGDTGFLSMYSAWETLSPTMQATIEGLNVVHSATKVFGSLYQATNWRFSNTSVKVMDVDAGDRETVHPLVVTHPVTGRRALYCNQVYCQKIQGMTDAESKSLLQFLYEHATQFDFTCRVRWKKDQVLVWDNLCTMHRAVPDYAGKFRYLTRTTVAGDKPSR"
measured_quantity = "tolerance to 2,4-D treatment"
observed_measurement = "excellent tolerance"

[[record]]
molecule = "MON-HT18: engineered oxygenase protein, amino acid sequence SEQ ID NO:52 (protein) MHAALTPLTNKYRHIDVQPLTGVLGAEITGVDLREPLDDSTWNEILDAFHTYQVIYFPGQAITNEQHIAFSRRFGPVDPVPILKSIEGYPEVQMIRREANESSRYIGDDWHADSTFLDAPPAAVVMRAIEVPEYGGDTGFLSMYSAWETLSPTMQATIEGLNVVHSATKVFGSLYQATNWRFSNTSVKVMDVDAGDRETVHPLVVTHPVTGRRALYCNQVYCQKIQGMTDAESKSLLQFLYEHATQFDFTCRVRWKKDQVLVWDNLCTMHRAVPDYAGKFRYLTRTTVAGDKPSR"
measured_quantity = "tolerance to 2,4-D treatment"
observed_measurement = "excellent tolerance"

